B1: PTPLAD1 (parent)
chain: YINFRHLYKQRRRRYGQKKKKIH

Variants of: B1
Assay: protein stability index of a GFP-peptide fusion (GPS, HEK-293T) (PSI 1-6); higher = more stable;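 also: lentivirally expressed fusions sorted by FACS into six bins by GFP to DsRed ratio, PSI derived from sequencing read proportions per bin multiplied by bin number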
Details: c terminus: native
Reported Property: protein stability index
Reply with just the number.

Data request, read-out protein stability index, for N3V
1.61

Returns the measured protein stability index for the input variant. Input: R12G
2.92

Look up protein stability index: R14L
2.34

Recorded protein stability index of K18T , please.
2.19

Would you kindly share the measured protein stability index for R13V ?
2.13

# get_value(readout='protein stability index', item= Q17M )
1.73

For the variant shown here, Y1W , give the reported protein stability index.
2.96

// protein stability index lookup, key: K20A
2.05

Which protein stability index value is on record for H6W ?
1.75

Would you mind telling me what protein stability index value was observed for L7V ?
2.93

Looking for the measured protein stability index of K19I , can you help?
2.54

Query: protein stability index; subject: I2C
2.2

What measured protein stability index goes with G16V ?
2.44

Query (variant): K9Y ; field requested: protein stability index
2.6

Consider the variant K19Q and give its measured protein stability index.
2.09

Fill blank: measured protein stability index of the variant K18D is ____.
2.44

Would you kindly share the measured protein stability index for K19Y ?
2.12

For R12H , what is its reported protein stability index?
1.93

So what does the record say about protein stability index for K20C ?
1.83

Item R13I has what recorded protein stability index?
1.9

For the variant shown here, I22F , give the reported protein stability index.
1.72

Query (variant): R13H ; field requested: protein stability index
2.4

Item under review: Q10G . Reported protein stability index?
1.92

What does the record list as protein stability index for K19N ?
1.62

Entry under review: R12C . Reported protein stability index?
1.55

# lookup: protein stability index of K9T
2.12

Look up protein stability index: K19S
2.07

What value of measured protein stability index is listed for I22Q ?
2.44

Look up protein stability index for this variant: H23S
1.48

Field request: protein stability index | item: Q17R
2.59

Query: protein stability index; subject: R11Y
2.61

// protein stability index lookup, key: Y1I
1.17

Look at this variant and give its reported protein stability index. Y1Q
2.24

Name the recorded protein stability index for Y8K .
2.5

# get_value(readout='protein stability index', item= H6K )
2.44

Quick one: protein stability index for Y15Q ?
1.88

For the variant shown here, L7R , give the reported protein stability index.
2.77

Would you mind telling me what protein stability index value was observed for L7Q ?
2.24

What protein stability index value was documented for this variant, I22L ?
2.67

// protein stability index lookup, key: N3R
4.4

Would you kindly share the measured protein stability index for I2Q ?
3.45

Reported protein stability index for Q17G : what is it?
2.25

// query protein stability index value for entry I22H
2.13

State the recorded protein stability index for this entry: R13Y
2.28

I'd like to know its protein stability index. The variant in question is G16R
1.74

Look up protein stability index: I22R
1.81
